Below: a set of entries, each annotated with reported IC50.
# TESTED SYSTEM: Recombinant human TPH1 (MBP tagged) (Homo sapiens, UniProt P17752)
# Construct: cloning full length human TPH1 cDNA in to a bacterial pMAL-c5E expression vector; made in house; host or cells: E. coli BL21 (DE3)
# Sequence (P17752 whole entry): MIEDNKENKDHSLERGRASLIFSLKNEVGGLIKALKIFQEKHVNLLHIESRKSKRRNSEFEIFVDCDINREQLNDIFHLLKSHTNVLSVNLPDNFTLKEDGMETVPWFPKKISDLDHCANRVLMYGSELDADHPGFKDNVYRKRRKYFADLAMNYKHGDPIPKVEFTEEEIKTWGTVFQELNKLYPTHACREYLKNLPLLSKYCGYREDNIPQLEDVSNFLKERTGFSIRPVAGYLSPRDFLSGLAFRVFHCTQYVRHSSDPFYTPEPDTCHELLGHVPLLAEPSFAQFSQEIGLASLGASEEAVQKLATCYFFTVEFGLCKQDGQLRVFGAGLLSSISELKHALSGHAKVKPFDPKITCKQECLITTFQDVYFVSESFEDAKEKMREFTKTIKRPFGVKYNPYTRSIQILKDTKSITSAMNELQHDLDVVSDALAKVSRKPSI
# ASSAY OVERVIEW: TPH1 in vitro inhibition assay (kinetic fluorescence)
# Format: biochemical
# MEASUREMENT CONTEXT: read-out: TPH1 Range (TPH1 inhibition IC50)

MOLECULE	IC50
Cc1ccc(-c2cc(Cl)ccc2[C@@H](Oc2cc(N3CCC4(CC3)CN[C@H](C(=O)O)C4)nc(N)n2)C(F)(F)F)cc1 [Example 34bx]	0.05 to 0.3 µM
COCCOc1cc(Cl)ccc1[C@@H](Oc1cc(N2CCC3(CC2)CN[C@H](C(=O)O)C3)nc(N)n1)C(F)(F)F	3 to 10 µM

Determine reported IC50 for Nc1nc(O[C@H](c2ccc(Cl)cc2-c2cccc([N+](=O)[O-])c2)C(F)(F)F)cc(N2CCC3(CC2)CNC(C(=O)O)C3)n1 (stereo partly drawn) [Example 34e] ; test system: Recombinant human TPH1 (MBP tagged) (Homo sapiens, UniProt P17752).
0.05 to 0.3 µM

Tell me IC50 of Nc1nc(O[C@H](c2ccc(-c3ccc4sncc4c3)cc2)C(F)(F)F)cc(N2CCC3(CC2)CN[C@H](C(=O)O)C3)n1 [Example 55j] when tested on Recombinant human TPH1 (MBP tagged) (Homo sapiens, UniProt P17752).
0.05 to 0.3 µM

# lookup: Recombinant human TPH1 (MBP tagged) (Homo sapiens, UniProt P17752) IC50, key = COc1ncc(-c2ccc([C@@H](Oc3cc(N4CCC5(CC4)CN[C@H](C(=O)O)C5)nc(N)n3)C(F)(F)F)c(-n3ccc(C)n3)c2)cn1
< 0.05 µM

Please tell me the measured IC50 for CC(=O)NCCc1ccc(-c2ccc([C@@H](Oc3cc(N4CCC5(CC4)CN[C@H](C(=O)O)C5)nc(N)n3)C(F)(F)F)c(-n3ccc(C)n3)c2)cc1 ; system: Recombinant human TPH1 (MBP tagged) (Homo sapiens, UniProt P17752).
< 0.05 µM

Please respond with reported IC50 (system Recombinant human TPH1 (MBP tagged) (Homo sapiens, UniProt P17752)) for Nc1nc(O[C@H](c2ccc(-c3ccc4[nH]cnc4c3)cc2)C(F)(F)F)cc(N2CCC3(CC2)CN[C@H](C(=O)O)C3)n1 [Example 55d] .
< 0.05 µM

* * *

# TESTED SYSTEM: Recombinant human TPH1 (MBP tagged) (Homo sapiens, UniProt P17752)
# Construct: cloning full length human TPH1 cDNA in to a bacterial pMAL-c5E expression vector; made in house; host or cells: E. coli BL21 (DE3)
# ASSAY OVERVIEW: TPH1 in vitro inhibition assay (kinetic fluorescence)
# Type: biochemical
# MEASUREMENT CONTEXT: read-out: TPH1 Range (TPH1 inhibition IC50)
pIC50: −log10 of the molar value.
Entries and their measured pIC50 follow.

Some molecules with known pIC50 results, for comparison:
MOLECULE	pIC50
CCOC(=O)c1ccc(-c2ccc(-n3ccc(C)n3)c([C@@H](Oc3cc(N4CCC5(CC4)CN[C@H](C(=O)O)C5)nc(N)n3)C(F)(F)F)c2)cc1 [Example 21]	> 7.30
Cc1ccn(-c2ccc(-c3cccc(/C=C/C(=O)O)c3)cc2[C@@H](Oc2cc(N3CCC4(CC3)CN[C@H](C(=O)O)C4)nc(N)n2)C(F)(F)F)n1 [Example 19h]	> 7.30

--- query ---
// fetch pIC50 given entry Nc1nc(O[C@H](c2ccc(-c3ccc(C(=O)NCCN4CCOCC4)cc3)cc2)C(F)(F)F)cc(N2CCC3(CC2)CN[C@H](C(=O)O)C3)n1 [Example 55dh]
6.52 to 7.30

* * *

# TESTED SYSTEM: Recombinant human TPH1 (MBP tagged) (Homo sapiens)
# Construct: cloning full length human TPH1 cDNA in to a bacterial pMAL-c5E expression vector; made in house; host or cells: E. coli BL21 (DE3)
# ASSAY OVERVIEW: TPH1 in vitro inhibition assay (kinetic fluorescence)
# Format: biochemical
# MEASUREMENT CONTEXT: read-out: TPH1 Range (TPH1 inhibition IC50)
# Procedure: Recombinant human TPH1 (rTPH1 GenBank™ accession no. NP_004179) was expressed by cloning full length human TPH1 cDNA in to a bacterial pMAL-c5E expression vector to produce maltose-binding protein (MBP) TPH1 fusion proteins. […] TPH1 activities were measured in an assay containing 200 mM ammonium sulfate, 7 mM DTT, 50 μg/mL catalase, 25 μM ammonium iron sulfate, 50 mM MES, pH 7.1. […] Fluorescence reads are recorded in kinetic mode for 300 seconds (5 minutes). […]
The molecules listed here are annotated with their IC50.

MOLECULE	TESTED SYSTEM	IC50
COC(=O)c1ccc(-c2ccc([C@@H](Oc3cc(N4CCC5(CC4)CN[C@H](C(=O)O)C5)nc(C)n3)C(F)(F)F)c(-n3ccc(C)n3)c2)cc1OC [Example 29q]	Recombinant human TPH1 (MBP tagged) (Homo sapiens)	< 50 nM

Answer with reported IC50 of C/C=C/c1ccc(-n2ccc(C)n2)c([C@@H](Oc2cc(N3CCC4(CC3)CN[C@H](C(=O)O)C4)nc(N)n2)C(F)(F)F)c1 [Example 19b]
< 50 nM

* * *

# TESTED SYSTEM: Recombinant human TPH1 (MBP tagged) (Homo sapiens, UniProt P17752)
# Construct: cloning full length human TPH1 cDNA in to a bacterial pMAL-c5E expression vector; made in house; host or cells: E. coli BL21 (DE3)
# ASSAY OVERVIEW: TPH1 in vitro inhibition assay (kinetic fluorescence)
# Format: biochemical
# MEASUREMENT CONTEXT: read-out: TPH1 Range (TPH1 inhibition IC50)
# Protocol: Recombinant human TPH1 (rTPH1 GenBank™ accession no. NP_004179) was expressed by cloning full length human TPH1 cDNA in to a bacterial pMAL-c5E expression vector to produce maltose-binding protein (MBP) TPH1 fusion proteins. […] TPH1 activities were measured in an assay containing 200 mM ammonium sulfate, 7 mM DTT, 50 μg/mL catalase, 25 μM ammonium iron sulfate, 50 mM MES, pH 7.1. […] Fluorescence reads are recorded in kinetic mode for 300 seconds (5 minutes). […]
Measured IC50 by item

Consider the reported IC50 for these compounds:
COMPOUND	REPORTED ENDPOINT	RESULT
Cn1ncc2ccc(-c3ccc([C@@H](Oc4cc(N5CCC6(CC5)CN[C@H](C(=O)O)C6)nc(N)n4)C(F)(F)F)cc3)cc21 [Example 55i]	IC50	< 0.05 µM
Cc1ccn(-c2cc(-c3cnoc3)ccc2[C@@H](Oc2cc(N3CCC4(CC3)CN[C@H](C(=O)O)C4)nc(N)n2)C(F)(F)F)n1	IC50	0.05 to 0.3 µM

Then this compound:
Kindly indicate its recorded IC50. Item: Cc1ccc(-c2ccc([C@@H](Oc3cc(N4CCC5(CC4)CN[C@H](C(=O)O)C5)nc(N)n3)C(F)(F)F)cc2)cc1C [Example 55ch]
0.05 to 0.3 µM

* * *

# TESTED SYSTEM: Recombinant human TPH1 (MBP tagged) (Homo sapiens)
# Construct: cloning full length human TPH1 cDNA in to a bacterial pMAL-c5E expression vector; made in house; host or cells: E. coli BL21 (DE3)
# ASSAY OVERVIEW: TPH1 in vitro inhibition assay (kinetic fluorescence)
# Type: biochemical
# MEASUREMENT CONTEXT: read-out: TPH1 Range (TPH1 inhibition IC50)
REPORTED ENDPOINT: IC50

COMPOUND	IC50
Nc1nc(O[C@H](c2ccc(Cl)cc2-c2ccccn2)C(F)(F)F)cc(N2CCC3(CC2)CN[C@H](C(=O)O)C3)n1 [Example 34cs]	0.05 to 0.3 µM

Identify measured IC50 associated with Cc1ccn(-c2cc(-c3ccc(OC(C)C)c(Cl)c3)ccc2[C@@H](Oc2cc(N3CCC4(CC3)CN[C@H](C(=O)O)C4)nc(N)n2)C(F)(F)F)n1
< 0.05 µM

// Input: Cc1cc(Cl)ccc1-c1ccc([C@@H](Oc2cc(N3CCC4(CC3)CN[C@H](C(=O)O)C4)nc(N)n2)C(F)(F)F)cc1 [Example 55cp] . Output its IC50 only.
0.3 to 3 µM

Check the records and state IC50 for Nc1nc(O[C@H](c2ccc(Cl)cc2-c2ccc(C(F)(F)F)c(Cl)c2)C(F)(F)F)cc(N2CCC3(CC2)CN[C@H](C(=O)O)C3)n1 [Example 34ax]
0.05 to 0.3 µM

Look up IC50 of Cc1cc(Cl)cc(-c2ccc([C@@H](Oc3cc(N4CCC5(CC4)CN[C@H](C(=O)O)C5)nc(N)n3)C(F)(F)F)c(-n3ccc(C)n3)c2)c1 and report it.
< 0.05 µM

Please give the documented IC50 of NC(=O)c1ccc(-c2ccc([C@@H](Oc3cc(N4CCC5(CC4)CN[C@H](C(=O)O)C5)nc(N)n3)C(F)(F)F)cc2)cc1 [Example 55df]
0.05 to 0.3 µM

Determine from records and report IC50 for Cc1ccc(-c2cc(Cl)ccc2[C@@H](Oc2cc(N3CCC4(CC3)CN[C@H](C(=O)O)C4)nc(N)n2)C(F)(F)F)cc1F [Example 34bn]
0.05 to 0.3 µM

Output IC50 of Nc1nc(O[C@H](c2ccc(-c3ccc4ncnn4c3)cc2)C(F)(F)F)cc(N2CCC3(CC2)CN[C@H](C(=O)O)C3)n1 [Example 55l]
0.05 to 0.3 µM

Determine its reported IC50: Cc1cc(-c2ccc3ncc(F)cc3c2)ccc1[C@@H](Oc1cc(N2CCC3(CC2)CN[C@H](C(=O)O)C3)nc(N)n1)C(F)(F)F [Example 59c]
0.05 to 0.3 µM

Note down IC50 recorded for Nc1nc(O[C@H](c2ccc(Cl)cc2C2=CCCCC2)C(F)(F)F)cc(N2CCC3(CC2)CN[C@H](C(=O)O)C3)n1 [Example 34by]
0.05 to 0.3 µM

Name the recorded IC50 of the item Cc1ccc(-c2ccc([C@@H](Oc3cc(N4CCC5(CC4)CN[C@H](C(=O)O)C5)nc(N)n3)C(F)(F)F)cc2)cn1 [Example 55bo] in your answer.
0.05 to 0.3 µM

Give reported IC50 value for Cc1ccn(-c2cc(-c3ccc(C(=O)N(C)C)cc3)ccc2[C@@H](Oc2cc(N3CCC4(CC3)CN[C@H](C(=O)O)C4)nc(N)n2)C(F)(F)F)n1
< 0.05 µM

// provenance: patent US11759462B2
